# System: P. falciparum stage V gametocytes
# Design: BacTiter-Glo ATP luminescence viability of purified stage V gametocytes in 384-well plates, per cent inhibition versus DMSO
# assay-conditions: 48 h, 5 µM; inhibitor
About 3,200 (25%) of roughly 13,000 compounds showed an effect of 50% or more. Some of the results follow.
recorded-metric: % Inhibition (%)
Response body: numeric value in %, unit text excluded.

Kindly note the recorded % Inhibition for COc1cccc(C(=O)Nc2ccc(Nc3nc(C)cc(N(C)C)n3)cc2)c1OC , which is 58.09

Memo: c1cc(CNC2Cc3ccccc3C2)cc(-c2cnc(N3CCNCC3)nc2)c1 , reported % Inhibition: 110.7

Query CC(C)(C)c1ccccc1SC1=C(O)CC2(CCNCC2)OC1=O yields % Inhibition of 16.85

COc1cc(NC(=O)c2c(-c3c(F)cccc3Cl)noc2C)c(OC)cc1Cl yielded % Inhibition of 20.08

Quick note, % Inhibition for CN(C)CCCNCCS(=O)(=O)c1cccc(Nc2ccc(-c3cccc(N(C)C)c3)cn2)c1 landed at 11.18

% Inhibition in this record for COc1ccc2ncc(F)c(CCN3C[C@H](CNCc4cc(F)c5c(c4)NC(=O)CO5)[C@H](O)C3)c2n1 : 28.74

Value of % Inhibition reported for the compound COc1ccc(NC(=O)Nc2ccc(Nc3nc(C)cc(N(C)C)n3)cc2)cc1 is 1.588

Per the records, this compound ( CCN(CC)C(C)(C)CN(Cc1ccc(-c2ccc(C(F)(F)F)cc2)cc1)C(=O)Cn1c(CCc2cccc(F)c2F)nc(=O)c2ccccc21 ) has % Inhibition equal to 64.05

For this compound ( COc1ccc(C(=O)Nc2ccc(Nc3nc(C)cc(N(C)C)n3)cc2)c(OC)c1 ), measured % Inhibition is 63.21

The reported value for Oc1ccc(Cl)cc1-c1cc(C(F)(F)F)nc(-c2ccccc2)n1 in terms of % Inhibition is 32.7

Measured % Inhibition of O=C(c1cc(C(=O)NCc2ccc(Cl)cc2)c(=O)n(Cc2ccc(Cl)cc2)c1)c1cc(Cl)ccc1O : -61.86

Entry O=C(Cc1ccc[n+]([O-])c1)Nc1ccc(-c2cccc(-c3nc4cc(C(F)(F)F)ccc4[nH]3)c2)cc1 — recorded % Inhibition = -49.92

Recorded result, COc1cc2c(cc1N(C(C)C)S(=O)(=O)c1sc3ccc(Cl)cc3c1C)CCNCC2 , % Inhibition: 91.42

Entry under test: O=C(Nc1ccc(Oc2ccccc2)cc1)NC1CCC(CN2CCC(c3c[nH]c4ccccc34)CC2)CC1 (stereo not drawn) . Its % Inhibition was 102.3

For CC(C)(C)c1ccc(CN2CCC(NC(=O)c3ccc(-c4cccc(F)c4)s3)CC2)cc1 the compound record lists % Inhibition as -0.6628

---

# Test system: P. falciparum stage V gametocytes
# Design: BacTiter-Glo ATP luminescence viability of purified stage V gametocytes in 384-well plates, per cent inhibition versus DMSO
# assay-conditions: 48 h, 5 µM; inhibitor
Out of some 13,000 compounds screened, about 3,200 (25%) showed an effect of 50% or more. The list shows a part of the results.
Lab note: anything with % Inhibition at or over 30% counts as class 1; the rest go in class 0.

Query block: Threshold query (% Inhibition >= 30%) on CN(Cc1ccc(-c2ccc(C(F)(F)F)cc2)cc1)C(=O)Cn1c(CCc2cccc(F)c2F)cc(=O)c2ccc(OCC3CCCN3C)cc21 (centres unmarked) [TCMDC-141405]
Result block: class 1

Query block: Say whether CCOc1ccc(C(=O)Nc2nonc2-c2ccc(OC)c(OC)c2)cc1 [TCMDC-125402] shows % Inhibition of 30% or more.
Result block: class 1

Query block: In plain terms: is recorded % Inhibition at least 30% for COc1cc(Cc2cnc(N)nc2N)ccc1OCc1ccc(NC(C)=O)cc1 [TCMDC-138675] ?
Result block: class 1

Query block: Is it the case that CCOc1ccc(-c2nonc2NC(=O)c2ccc(OC(C)C)cc2)cc1OCC [TCMDC-125276] has % Inhibition reaching or exceeding 30%?
Result block: class 0

Query block: Reported % Inhibition reaches at least 30% for COc1ccccc1C(C)NCC(=O)Nc1cc(C(F)(F)F)ccc1Cl (centres unmarked) [TCMDC-125041] ?
Result block: class 0
